- target_desc: MELK (Homo sapiens, UniProt Q14680)
- Sequence (Q14680 whole entry, looked up): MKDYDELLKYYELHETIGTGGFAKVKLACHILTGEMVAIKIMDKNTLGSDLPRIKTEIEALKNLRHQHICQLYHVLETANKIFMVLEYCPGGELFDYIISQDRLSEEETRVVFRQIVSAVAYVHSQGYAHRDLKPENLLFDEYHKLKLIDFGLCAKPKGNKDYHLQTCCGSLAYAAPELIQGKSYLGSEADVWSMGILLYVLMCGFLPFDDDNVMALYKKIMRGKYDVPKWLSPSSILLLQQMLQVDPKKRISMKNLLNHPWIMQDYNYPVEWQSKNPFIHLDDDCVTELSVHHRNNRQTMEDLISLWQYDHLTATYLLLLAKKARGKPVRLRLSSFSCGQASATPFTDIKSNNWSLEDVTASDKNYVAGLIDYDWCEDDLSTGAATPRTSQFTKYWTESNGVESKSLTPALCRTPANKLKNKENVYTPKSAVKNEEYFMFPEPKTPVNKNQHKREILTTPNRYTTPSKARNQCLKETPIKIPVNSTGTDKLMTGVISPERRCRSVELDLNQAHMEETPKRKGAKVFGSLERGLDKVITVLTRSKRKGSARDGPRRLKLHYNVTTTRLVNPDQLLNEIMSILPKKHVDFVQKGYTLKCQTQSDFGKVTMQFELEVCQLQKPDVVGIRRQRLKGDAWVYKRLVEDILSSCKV
- test_method_notes: Kinase assay: MELK activity, phosphorylation of FITC-labeled histone H3 peptide measured by IMAP fluorescence polarization
- Format: biochemical
- condition_label: MELK kinase assay, IMAP fluorescence polarization, 50 micro-M ATP; read-out: IC50 (μM) (kinase assay)
Where a name gives a salt, the structure may show the parent alone.
Categorized via IC50: lowest = under 0.005 µM, middle = from 0.005 µM up to 0.008 µM, highest = 0.008 µM and over

Q) Form field 'band' for CCC(=O)c1cnc2ccc(-c3cc(Cl)c(O)c(Cl)c3)cc2c1Nc1ccc(N2CCC[C@H](N)C2)nc1 [Example 934]
A) lowest

Q) Form field 'band' for CC(N)C(=O)N[C@H]1CC[C@H](Nc2c(C(=O)C(C)(C)C)cnc3ccc(-c4cc(F)c(O)c(Cl)c4)cc23)CC1 (stereo partly shown) [Example 932, hydrochloride]
A) highest

Q) Form field 'band' for CC(=O)c1cnc2cc(C)c(-c3cc(F)c(O)c(Cl)c3)cc2c1N[C@H]1CC[C@H](CN(C)C)CC1 [Example 859, hydrochloride]
A) highest

Q) Form field 'band' for CC(=O)c1cnc2ccc(-c3ccc4nc[nH]c4c3)cc2c1Nc1ccc(N2CCC(N(C)C)C2)nc1 (stereo not shown) [Example 905, hydrochloride]
A) highest

Q) Form field 'band' for CC(=O)c1cnc2ccc(-c3cc(Cl)c(O)c(Cl)c3)cc2c1N[C@H]1CCC[C@@H](CN(C)C)C1 [Example 827, hydrochloride]
A) lowest

Q) Form field 'band' for COc1cc(-c2ccc3ncc(C(=O)C4CCCC4)c(N[C@H]4CC[C@H](CN(C)C)CC4)c3c2)cc(Cl)c1O [Example 916, hydrochloride]
A) lowest

Q) Form field 'band' for CCN(C)C[C@H]1CC[C@H](Nc2c(C(C)=O)cnc3ccc(-c4cc(Cl)c(O)c(Cl)c4)cc23)CC1 [Example 817]
A) lowest

Q) Form field 'band' for O=C(c1cnc2ccc(-c3cc(Cl)c(O)c(Cl)c3)cc2c1Nc1cncc(CCN2CCCC2)c1)C1CC1 [Example 881]
A) middle

Q) Form field 'band' for CC(=O)c1cnc2ccc(-c3cc(Cl)c(O)c(Cl)c3)cc2c1Nc1cncc(CCN2CCCC2)c1 [Example 873, hydrochloride]
A) middle

Q) Form field 'band' for CCN(CC)CCO[C@H]1CC[C@H](Nc2c(C(C)=O)cnc3ccc(-c4cc(F)c(O)c(Cl)c4)cc23)CC1 [Example 869, hydrochloride]
A) highest

Q) Form field 'band' for CN(C)CCOc1ccc(Nc2c(S(C)(=O)=O)cnc3ccc(-c4cc(F)c(O)c(Cl)c4)cc23)cn1 [Example 885, hydrochloride]
A) highest

Q) Form field 'band' for CC(=O)c1cnc2ccc(-c3cc(Cl)c(O)c(Cl)c3)cc2c1Nc1ccc(OCCN(C)C)nc1 [Example 852, hydrochloride]
A) lowest

FYI, the data here is from patent US9120749B2.
